- MEASURED ON: AHR (UniProt P35869)
- ASSAY NAME: DRE-Luciferase Reporter Assay (Alternate Method, Example 1B)
- Format: cell-based
- Parameters: IC50; other: alternate method: compound and agonist added at plating or after overnight incubation; murine (Hepa1-6, He)
- CONDITIONS USED: alternate method: compound and agonist added at plating or after overnight incubation; murine (Hepa1-6, Hepa-1c1c7) or human (HepG2) DRE-luciferase reporter cells, cell line used not stated
ENDPOINT: IC50

Solved entries:
>  <MOLECULE>
O=C(Nc1ccc2cc(-c3ccccc3)cnc2c1)c1ccn[nH]1

>  <IC50>
500 to 1000 nM

$$$$
>  <MOLECULE>
Cn1nccc1C(=O)Nc1ccc2cc(-c3ccccc3)cnc2c1

>  <IC50>
< 500 nM

$$$$
>  <MOLECULE>
Cn1nccc1C(=O)Nc1ccc2cc(-c3ccc(N4CCOCC4)cc3)cnc2c1

>  <IC50>
> 1500 nM

$$$$
>  <MOLECULE>
Cc1ccccc1-c1cnc2cc(NC(=O)c3ccnn3C)ccc2c1

>  <IC50>
< 500 nM

$$$$
>  <MOLECULE>
Cn1nccc1C(=O)Nc1cnc2cc(-c3ccccc3)ccc2c1

>  <IC50>
500 to 1000 nM

$$$$
>  <MOLECULE>
Cn1nccc1C(=O)Nc1ccc2cc(-c3ccsc3)cnc2c1

>  <IC50>
< 500 nM

$$$$
>  <MOLECULE>
Cc1cc(/N=N/c2cccc3cccnc23)ccc1NC(=O)c1ccnn1C

>  <IC50>
> 1500 nM

$$$$
>  <MOLECULE>
Cn1nccc1C(=O)Nc1ccc(C#Cc2ccccc2)c2c1OCO2

>  <IC50>
> 1500 nM

$$$$
>  <MOLECULE>
Cn1nccc1C(=O)Nc1ccc2cc(-c3cccc(N4CCOCC4)c3)cnc2c1

>  <IC50>
> 1500 nM

$$$$
>  <MOLECULE>
Cn1nccc1C(=O)Nc1ccc2cc(-c3ncco3)cnc2c1

>  <IC50>
500 to 1000 nM

$$$$

Below are some molecules; for each one, tell me its IC50.
1. Cn1nccc1C(=O)Nc1ccc2cc(-c3ccccc3N3CCOCC3)cnc2c1
2. Cc1cc(C2CC2c2ccccc2)ccc1NC(=O)c1ccnn1C (stereo not drawn)
3. Cn1nccc1C(=O)Nc1ccc2cc(-c3cccc(O)c3)cnc2c1
4. Cn1nccc1C(=O)Nc1ccc2cc(C3CCCCC3)cnc2c1
5. Cc1ccccc1-c1ccc2c(C)c(NC(=O)c3ccnn3C)ccc2n1

1: > 1500 nM; 2: > 1500 nM; 3: 1000 to 1500 nM; 4: > 1500 nM; 5: > 1500 nM

Below are some molecules; for each one, tell me its IC50.
1. Cn1nccc1C(=O)Nc1ccc2cc(-c3cccs3)cnc2c1
2. Cn1nccc1C(=O)Nc1ccc2cc(-c3ccc(C(F)(F)F)cc3)cnc2c1
3. Cn1nccc1C(=O)Nc1ccc2cccnc2c1

< 500 nM
> 1500 nM
> 1500 nM

Below are some molecules; for each one, tell me its IC50.
1. Cn1nccc1C(=O)Nc1ccc2cc(-c3ccccc3C(F)(F)F)cnc2c1
2. COc1ccccc1C#Cc1ccc(NC(=O)c2ccnn2C)c(C)c1
3. Cn1nccc1C(=O)Nc1ccc2cc(-c3cccc(C(F)(F)F)c3)cnc2c1

1: > 1500 nM; 2: > 1500 nM; 3: < 500 nM
